Target: CYP3A4 (Homo sapiens)
Sequence (P08684 whole entry): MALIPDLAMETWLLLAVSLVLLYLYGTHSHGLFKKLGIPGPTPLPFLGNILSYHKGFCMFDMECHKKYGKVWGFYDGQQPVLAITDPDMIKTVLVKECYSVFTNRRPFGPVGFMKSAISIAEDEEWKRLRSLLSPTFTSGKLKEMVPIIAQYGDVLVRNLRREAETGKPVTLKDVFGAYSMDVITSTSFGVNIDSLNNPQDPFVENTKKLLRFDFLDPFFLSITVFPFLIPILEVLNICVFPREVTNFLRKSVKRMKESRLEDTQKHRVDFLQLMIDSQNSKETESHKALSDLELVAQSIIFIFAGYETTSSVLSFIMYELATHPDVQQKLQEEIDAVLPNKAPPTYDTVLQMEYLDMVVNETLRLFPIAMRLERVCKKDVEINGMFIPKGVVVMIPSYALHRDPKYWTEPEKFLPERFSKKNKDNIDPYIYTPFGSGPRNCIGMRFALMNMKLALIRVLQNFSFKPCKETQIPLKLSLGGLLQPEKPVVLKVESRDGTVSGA
Conditions: microsomes, 10 µM
Protocol: Metabolites of each CYP isoenzyme indicator drug produced through the reaction were analyzed by LC-MS/MS using the Shimadzu Nexera XR system and TSQ vantage (Thermo).
Peptide text beside a SMILES is read from it.
Please respond with reported CYP inhibition (% of control activity) CYP3A4 for every item in the list.

Sample CC(C)C[C@H](NC(=O)CN)C(=O)N[C@@H](Cc1ccc(O)cc1)C(=O)N[C@@H](Cc1ccc(O)cc1)C(=O)N[C@@H](Cc1ccccc1)C(=O)O [APN5, NH2-GLYYF-OH, reference compound] — what was its CYP inhibition (% of control activity) CYP3A4?
82.9 % of control activity

Sample O=C(COc1ccc(C(=O)c2ccccc2)cc1)NC1CCN(Cc2ccccc2)CC1 [DS-43, adiporon, reference compound] — what was its CYP inhibition (% of control activity) CYP3A4?
90.3 % of control activity

Sample NCCCCC(NC(=O)C(Cc1ccc(O)cc1)NC(=O)C(Cc1ccc(O)cc1)NC(=O)C(CC(=O)O)NC(=O)CN)C(N)=O (stereo not shown) [DS-35, NH2-GDYYK-NH2] (H-GDYYK-NH2; configuration not given here) — what was its CYP inhibition (% of control activity) CYP3A4?
>100 % of control activity

Sample CC(=O)NC(CC(=O)O)C(=O)NC(Cc1ccc(O)cc1)C(=O)NC(Cc1ccc(O)cc1)C(=O)NC(Cc1ccccc1)C(=O)O (stereo not shown) [DS-28, AcNH-DYYF-OH] (Ac-DYYF-OH; configuration not given here) — what was its CYP inhibition (% of control activity) CYP3A4?
95.5 % of control activity
